Reference for the values: patent US4405642A

- Assay target: β-adrenergic receptors (guinea pig right atria) (Cavia porcellus, UniProt H0W3H1)
- Construct: Atria were allowed to beat spontaneously under a loading tension; from tissue; host or cells: guinea pig right atria (isolated, spontaneously beating)
- Sequence (H0W3H1 1-470): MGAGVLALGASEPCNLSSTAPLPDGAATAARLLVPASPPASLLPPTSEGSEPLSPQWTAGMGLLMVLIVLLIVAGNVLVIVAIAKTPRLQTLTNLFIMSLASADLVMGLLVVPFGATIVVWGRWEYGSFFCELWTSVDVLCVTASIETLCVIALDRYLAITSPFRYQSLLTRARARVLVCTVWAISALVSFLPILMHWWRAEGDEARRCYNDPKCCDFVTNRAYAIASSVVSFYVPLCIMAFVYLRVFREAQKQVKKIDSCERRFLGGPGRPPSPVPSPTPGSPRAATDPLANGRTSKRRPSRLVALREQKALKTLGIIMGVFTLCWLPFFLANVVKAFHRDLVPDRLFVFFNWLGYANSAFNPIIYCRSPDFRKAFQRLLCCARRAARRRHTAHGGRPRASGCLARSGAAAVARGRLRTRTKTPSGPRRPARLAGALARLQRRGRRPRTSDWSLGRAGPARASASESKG
- Assay overview: β-blocking activity in vitro, guinea pig right atria (rate response to isoproterenol)
- Format: cell-based
- Measurement parameters: vs isoproterenol, guinea pig right atria, 60 minute incubation, 37° C.; read-out: pA2 Atria (converted)
Assign Kb to each entry below.

Quick note, Kb for COc1ccc(CCNCC(O)COC(=O)c2ccccc2)cc1OC (stereo not shown) landed at 0.1 µM

For COc1ccc(CCNCC(O)COC(=O)c2ccc(CO)cc2)cc1OC (stereo not shown) the compound record lists Kb as > 3.16 µM

Summary for this compound, COc1ccc(CCNCC(O)COC(=O)c2ccc(F)cc2)cc1OC (stereo not shown) : Kb is 0.1 µM

For record Cc1cccc(C(=O)OCC(O)CNC(C)C)c1 (stereo not shown) the listed Kb is 0.158 µM

The reported value for CC(C)NCC(O)COC(=O)c1ccc2ccccc2c1 (stereo not shown) in terms of Kb is 0.398 µM

The compound identified as Cc1ccc(C(=O)OCC(O)CNC(C)C)cc1 (stereo not shown) registered its Kb at 0.158 µM

The compound listed as CC(C)(C)NCC(O)COC(=O)c1ccccc1F (stereo not shown) has a reported Kb of 0.158 µM
